# target_desc: mTOR (Homo sapiens, UniProt P42345)
# protocol_notes: Lanthascreen kinase binding assay, assay G
# experimental_parameters: read-out: Assay G mTOR IC50
pIC50: −log10 of the molar value.
assay_endpoint: pIC50

compound: COc1ccncc1-c1nc(-c2cc(S(=O)(=O)NCCC(C)(C)O)ccc2C)cnc1N
pIC50: < 5.04
//
compound: Cc1ccc(S(=O)(=O)NC2CCC(CO)CC2)cc1-c1cnc(N)c(-n2cncn2)n1 (stereo not shown)
pIC50: < 5.00
//
compound: Cc1csc(-c2nc(-c3cc(S(=O)(=O)NCC(C)(C)O)ccc3C)cnc2N)n1
pIC50: < 5.00

Consider the record given below.
pIC50 reading for Cc1ccc(S(=O)(=O)NCCCCCO)cc1-c1cnc(N)c(-n2cncn2)n1 : < 5.00

* * *

# target_desc: PI 3-kinase alpha (Homo sapiens, UniProt P42336)
# Sequence (P42336 whole entry): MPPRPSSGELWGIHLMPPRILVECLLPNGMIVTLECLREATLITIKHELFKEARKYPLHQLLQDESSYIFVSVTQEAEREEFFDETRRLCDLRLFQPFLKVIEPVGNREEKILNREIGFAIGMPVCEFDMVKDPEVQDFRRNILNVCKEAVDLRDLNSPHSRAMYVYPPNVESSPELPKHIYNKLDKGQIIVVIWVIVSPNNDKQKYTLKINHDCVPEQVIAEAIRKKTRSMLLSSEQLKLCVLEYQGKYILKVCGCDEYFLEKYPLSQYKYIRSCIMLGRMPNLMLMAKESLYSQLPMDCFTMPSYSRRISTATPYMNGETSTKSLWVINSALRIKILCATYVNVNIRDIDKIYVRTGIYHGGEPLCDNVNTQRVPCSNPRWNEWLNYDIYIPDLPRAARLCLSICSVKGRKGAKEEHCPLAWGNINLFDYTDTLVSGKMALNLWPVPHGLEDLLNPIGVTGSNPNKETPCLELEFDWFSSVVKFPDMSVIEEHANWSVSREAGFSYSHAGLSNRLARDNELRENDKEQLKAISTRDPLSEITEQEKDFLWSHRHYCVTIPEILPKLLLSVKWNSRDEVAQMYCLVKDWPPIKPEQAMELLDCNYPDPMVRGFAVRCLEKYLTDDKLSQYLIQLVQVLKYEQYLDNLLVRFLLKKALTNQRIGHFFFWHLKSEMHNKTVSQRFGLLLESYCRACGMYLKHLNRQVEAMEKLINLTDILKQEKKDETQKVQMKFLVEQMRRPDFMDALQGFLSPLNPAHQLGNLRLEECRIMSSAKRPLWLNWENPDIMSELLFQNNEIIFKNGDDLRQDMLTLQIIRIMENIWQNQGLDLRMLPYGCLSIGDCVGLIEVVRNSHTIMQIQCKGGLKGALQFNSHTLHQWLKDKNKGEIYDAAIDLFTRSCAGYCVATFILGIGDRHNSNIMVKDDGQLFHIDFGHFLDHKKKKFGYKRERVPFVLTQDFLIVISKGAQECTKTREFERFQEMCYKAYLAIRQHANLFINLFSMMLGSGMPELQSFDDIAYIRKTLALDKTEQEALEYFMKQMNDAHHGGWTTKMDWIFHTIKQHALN
# protocol_notes: Kinase Glo Luminescent Kinase Assay (Kglo), assay A
# Assay type: biochemical
# experimental_parameters: read-out: Assay A PI3Kα IC50
pIC50: −log10 of the molar value.
assay_endpoint: pIC50

Observe how each entry below is paired with its result.
molecule: Cc1ccc(S(=O)(=O)NCC2COCCN2C)cc1-c1cnc(N)c(-c2cn(C)nc2C)n1 (single isomer, unassigned) [Example 128.3b]
pIC50: 6.43

molecule: Cc1ncc(-c2nc(-c3cc(S(=O)(=O)NCC4(CO)COC4)ccc3C)cnc2N)s1
pIC50: 7.22

molecule: Cc1ccc(S(=O)(=O)N[C@H]2CC[C@H](O)CC2)cc1-c1cnc(N)c(-c2cccnc2)n1
pIC50: 6.12

(1) Cc1ccc(S(=O)(=O)NC[C@@H]2COCCN2)cc1-c1cnc(N)c(-c2cn(C)nc2C)n1
(2) Cc1ccc(S(=O)(=O)NCC2CNCCO2)cc1-c1cnc(N)c(-c2cn(C)nc2C)n1 (stereo not shown)
INPUT: So which one has the bigger pIC50 here, 1 or 2 ? Pick one and reply with its label.
OUTPUT: 1

* * *

# target_desc: UniProt Q8NEB9
# Sequence (Q8NEB9 whole entry, species assumed): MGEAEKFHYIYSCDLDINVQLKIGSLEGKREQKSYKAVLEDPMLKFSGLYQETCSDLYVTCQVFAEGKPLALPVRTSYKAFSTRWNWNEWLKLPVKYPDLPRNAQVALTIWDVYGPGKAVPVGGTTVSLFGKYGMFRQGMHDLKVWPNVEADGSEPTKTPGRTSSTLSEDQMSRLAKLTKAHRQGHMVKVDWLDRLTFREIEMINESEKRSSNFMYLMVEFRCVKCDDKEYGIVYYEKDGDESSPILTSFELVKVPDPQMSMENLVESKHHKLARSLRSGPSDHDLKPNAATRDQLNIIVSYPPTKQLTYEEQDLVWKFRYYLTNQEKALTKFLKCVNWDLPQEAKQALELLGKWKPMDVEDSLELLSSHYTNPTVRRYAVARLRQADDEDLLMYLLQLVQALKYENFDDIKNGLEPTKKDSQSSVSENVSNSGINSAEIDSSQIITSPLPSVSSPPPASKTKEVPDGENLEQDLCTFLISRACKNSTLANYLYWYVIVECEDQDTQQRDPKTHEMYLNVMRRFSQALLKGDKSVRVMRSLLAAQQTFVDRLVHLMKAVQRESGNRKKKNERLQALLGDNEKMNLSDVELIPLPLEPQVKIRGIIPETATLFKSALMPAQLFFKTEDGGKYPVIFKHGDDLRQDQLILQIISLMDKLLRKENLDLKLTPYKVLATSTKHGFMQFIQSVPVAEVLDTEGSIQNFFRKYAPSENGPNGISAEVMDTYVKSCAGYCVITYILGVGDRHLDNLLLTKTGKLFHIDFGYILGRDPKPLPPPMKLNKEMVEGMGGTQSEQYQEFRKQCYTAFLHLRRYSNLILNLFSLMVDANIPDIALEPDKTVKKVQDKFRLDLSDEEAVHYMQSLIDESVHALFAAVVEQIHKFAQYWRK
# protocol_notes: Kinase Glo Luminescent Kinase Assay (Kglo), assay C
# Assay type: biochemical
# experimental_parameters: read-out: Assay C VPS34 IC50
assay_endpoint: IC50 (µM)

molecule: Cc1ccc(S(=O)(=O)NCCC(C)(C)O)cc1-c1cnc(N)c(-n2cncn2)n1 [Example 64]
IC50 / µM: 8.49
//
molecule: Cc1ccc(S(=O)(=O)NCC(C)(C)O)cc1-c1cnc(N)c(-c2cc(C3CC3)no2)n1 [Example 79]
IC50 / µM: 7.6

* * *

# target_desc: PI 3-kinase beta (Homo sapiens, UniProt P42338)
# Sequence (P42338 whole entry, one chain of several): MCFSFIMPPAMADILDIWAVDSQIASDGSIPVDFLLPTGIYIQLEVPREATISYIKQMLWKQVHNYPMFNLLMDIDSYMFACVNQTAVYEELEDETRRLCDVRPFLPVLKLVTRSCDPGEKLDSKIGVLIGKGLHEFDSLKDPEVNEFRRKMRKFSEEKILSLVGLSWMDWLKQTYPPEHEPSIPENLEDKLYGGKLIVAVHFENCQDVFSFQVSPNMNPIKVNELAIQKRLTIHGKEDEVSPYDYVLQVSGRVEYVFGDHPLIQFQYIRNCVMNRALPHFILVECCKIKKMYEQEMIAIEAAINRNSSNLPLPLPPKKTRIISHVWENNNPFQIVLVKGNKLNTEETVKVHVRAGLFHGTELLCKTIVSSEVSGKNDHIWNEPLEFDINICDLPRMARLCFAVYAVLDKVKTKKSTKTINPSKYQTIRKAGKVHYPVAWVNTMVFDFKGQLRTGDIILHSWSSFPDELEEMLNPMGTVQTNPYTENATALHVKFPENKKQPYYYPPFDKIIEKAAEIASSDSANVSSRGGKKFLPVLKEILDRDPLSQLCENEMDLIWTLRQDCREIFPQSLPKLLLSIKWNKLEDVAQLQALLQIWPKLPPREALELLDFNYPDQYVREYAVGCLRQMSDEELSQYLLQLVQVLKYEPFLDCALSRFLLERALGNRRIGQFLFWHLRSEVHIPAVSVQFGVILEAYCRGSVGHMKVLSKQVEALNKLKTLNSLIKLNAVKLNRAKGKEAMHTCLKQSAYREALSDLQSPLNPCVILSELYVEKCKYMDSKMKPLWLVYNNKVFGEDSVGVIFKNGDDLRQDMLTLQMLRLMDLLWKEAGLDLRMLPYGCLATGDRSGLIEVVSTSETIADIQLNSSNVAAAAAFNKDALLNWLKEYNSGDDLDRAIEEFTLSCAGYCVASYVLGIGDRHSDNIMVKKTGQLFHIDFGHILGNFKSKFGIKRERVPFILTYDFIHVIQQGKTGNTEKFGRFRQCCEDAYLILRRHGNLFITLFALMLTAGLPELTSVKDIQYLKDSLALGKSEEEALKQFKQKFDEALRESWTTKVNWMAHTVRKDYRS
# protocol_notes: Kinase Glo Luminescent Kinase Assay (Kglo), assay B
# Type: biochemical
# experimental_parameters: read-out: Assay B PI3Kβ IC50
pIC50: −log10 of the molar value.
assay_endpoint: pIC50

Consider the worked cases shown below.
compound: Cc1ccc(S(=O)(=O)NCC(C)(C)O)cc1-c1cnc(N)c(-c2cnn(C)c2)n1
pIC50: 5.70
--
compound: Cc1ccc(S(=O)(=O)N[C@@H](C)CO)cc1-c1cnc(N)c(-n2cncn2)n1
pIC50: 5.46
--
compound: Cc1ccc(S(=O)(=O)NOC(C)(C)C)cc1-c1cnc(N)c(-n2cncn2)n1
pIC50: 5.77

(A) CCn1cc(-c2nc(-c3cc(S(=O)(=O)NCC(C)(C)O)ccc3C)cnc2N)nn1
(B) Cc1ccc(S(=O)(=O)NC[C@H]2COCCN2)cc1-c1cnc(N)c(-c2cn(C)nc2C)n1
(C) Cc1ccc(S(=O)(=O)NCCC(C)(C)O)cc1-c1cnc(N)c(-c2cnn(C)n2)n1
INPUT: Ordering criterion: pIC50; begin with the maximum. Your answer should be the labels, listed in the requested order.
OUTPUT: C, B, A

(P) Cc1ccc(S(=O)(=O)NCC2(CO)CC2)cc1-c1cnc(N)c(-n2cncn2)n1
(Q) COC1(C)CN(S(=O)(=O)c2ccc(C)c(-c3cnc(N)c(-c4cn(C)nc4C)n3)c2)C1
(R) Cc1ncc(-c2nc(-c3cc(S(=O)(=O)NC[C@H]4C[C@H](O)C4)ccc3C)cnc2N)s1 [Example 20b]
(S) Cc1cc(-c2nc(-c3cc(S(=O)(=O)NCCCCCO)ccc3C)cnc2N)ccn1
(T) Cc1ncc(-c2nc(-c3cc(S(=O)(=O)NCCO)ccc3C)cnc2N)s1
INPUT: // ranking: key=pIC50, reverse=True // list labels; follow requested order
OUTPUT: T, R, Q, P, S

* * *

# target_desc: PI 4-kinase beta (Homo sapiens)
# Sequence (Q9UBF8 whole entry): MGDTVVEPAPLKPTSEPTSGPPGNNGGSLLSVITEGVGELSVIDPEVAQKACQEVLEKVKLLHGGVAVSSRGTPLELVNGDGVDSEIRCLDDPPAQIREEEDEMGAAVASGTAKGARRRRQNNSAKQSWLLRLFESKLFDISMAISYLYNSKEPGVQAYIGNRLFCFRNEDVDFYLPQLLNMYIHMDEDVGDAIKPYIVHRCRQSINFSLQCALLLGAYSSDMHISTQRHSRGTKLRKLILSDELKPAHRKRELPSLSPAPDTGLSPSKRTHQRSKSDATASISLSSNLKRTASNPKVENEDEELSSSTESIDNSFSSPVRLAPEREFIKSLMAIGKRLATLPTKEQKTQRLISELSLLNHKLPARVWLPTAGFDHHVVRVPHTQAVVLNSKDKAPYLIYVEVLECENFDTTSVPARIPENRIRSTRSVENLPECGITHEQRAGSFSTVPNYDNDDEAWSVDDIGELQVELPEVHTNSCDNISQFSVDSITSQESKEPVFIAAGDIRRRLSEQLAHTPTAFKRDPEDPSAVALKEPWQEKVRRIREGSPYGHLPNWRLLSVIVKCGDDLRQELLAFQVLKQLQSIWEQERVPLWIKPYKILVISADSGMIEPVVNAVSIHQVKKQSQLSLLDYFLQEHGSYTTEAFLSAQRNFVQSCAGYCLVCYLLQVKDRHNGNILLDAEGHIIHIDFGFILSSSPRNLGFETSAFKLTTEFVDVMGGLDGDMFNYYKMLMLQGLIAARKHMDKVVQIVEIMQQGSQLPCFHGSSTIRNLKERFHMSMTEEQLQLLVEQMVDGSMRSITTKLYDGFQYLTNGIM
# protocol_notes: Kinase Glo Luminescent Kinase Assay (Kglo), assay D
# Assay type: biochemical
# experimental_parameters: read-out: Assay D PI4Kβ IC50
pIC50: −log10 of the molar value.
Here, each record is paired with measured pIC50 data.

compound: Cc1cc(-c2nc(-c3cc(S(=O)(=O)NC[C@@H]4CCNC4)ccc3C)cnc2N)ccn1
value: < 5.04
--
compound: Cc1ccc(S(=O)(=O)NCC2COCCN2C)cc1-c1cnc(N)c(-c2cn(C)nc2C)n1 (stereo not drawn) [Example 128.2]
value: < 5.00

Here's the next entry for you.
Measured pIC50, Cc1ccc(S(=O)(=O)N[C@H]2CCOC2)cc1-c1cnc(N)c(-n2cncn2)n1 : < 5.00

* * *

# target_desc: PI 3-kinase delta (Homo sapiens, UniProt O00329)
# Sequence (O00329 whole entry): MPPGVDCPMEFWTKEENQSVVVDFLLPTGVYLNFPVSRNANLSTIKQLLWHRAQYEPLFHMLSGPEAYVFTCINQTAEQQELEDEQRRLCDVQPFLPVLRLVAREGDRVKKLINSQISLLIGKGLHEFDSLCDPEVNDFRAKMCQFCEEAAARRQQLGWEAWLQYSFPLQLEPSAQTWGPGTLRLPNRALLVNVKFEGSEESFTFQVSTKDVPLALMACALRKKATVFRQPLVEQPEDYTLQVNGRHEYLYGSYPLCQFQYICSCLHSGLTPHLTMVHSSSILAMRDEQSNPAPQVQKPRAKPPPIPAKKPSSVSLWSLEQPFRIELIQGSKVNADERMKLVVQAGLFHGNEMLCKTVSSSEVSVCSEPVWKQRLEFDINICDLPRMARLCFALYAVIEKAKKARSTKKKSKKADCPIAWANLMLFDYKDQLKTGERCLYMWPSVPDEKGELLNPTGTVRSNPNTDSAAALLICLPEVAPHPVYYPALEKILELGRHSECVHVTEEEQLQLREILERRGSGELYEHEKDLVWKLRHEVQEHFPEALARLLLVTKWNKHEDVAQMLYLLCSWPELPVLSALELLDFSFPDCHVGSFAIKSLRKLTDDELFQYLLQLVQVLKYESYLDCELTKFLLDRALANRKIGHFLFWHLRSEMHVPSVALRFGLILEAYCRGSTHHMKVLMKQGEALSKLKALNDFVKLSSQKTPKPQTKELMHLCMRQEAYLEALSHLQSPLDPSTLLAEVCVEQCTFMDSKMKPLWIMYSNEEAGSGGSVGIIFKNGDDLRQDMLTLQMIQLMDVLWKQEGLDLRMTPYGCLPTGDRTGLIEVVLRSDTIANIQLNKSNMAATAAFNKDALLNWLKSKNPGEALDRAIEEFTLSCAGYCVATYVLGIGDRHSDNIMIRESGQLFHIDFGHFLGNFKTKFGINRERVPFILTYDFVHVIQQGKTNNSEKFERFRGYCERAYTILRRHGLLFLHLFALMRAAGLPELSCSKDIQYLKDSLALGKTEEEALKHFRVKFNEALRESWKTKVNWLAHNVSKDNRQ
# Sequence (P27986 461-568 partner): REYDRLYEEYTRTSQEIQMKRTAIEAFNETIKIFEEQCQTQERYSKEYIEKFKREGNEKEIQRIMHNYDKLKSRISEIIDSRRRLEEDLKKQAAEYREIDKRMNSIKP
# protocol_notes: TR-FRET Adapta assay, assay F
# experimental_parameters: read-out: Assay F PI3Kδ IC50
assay_endpoint: IC50 (nM)

molecule: Cc1ccc(S(=O)(=O)N2CC3(CC(O)C3)C2)cc1-c1cnc(N)c(-n2cncn2)n1 [Example 101]
unit_annotation: nM
IC50: 3000

(1) Cc1cc(F)c(S(=O)(=O)NCCC(C)(C)O)cc1-c1cnc(N)c(-c2cnn(C)c2)n1 [Example 115]
(2) CC[C@H](CO)NS(=O)(=O)c1ccc(C)c(-c2cnc(N)c(-c3ccnc(C)c3)n2)c1 [Example 129.7]
INPUT: Could you kindly indicate whether 1 or 2 has the higher IC50 value? Choose, then provide that item's label.
OUTPUT: 2

* * *

# target_desc: PI 3-kinase alpha (Homo sapiens)
# protocol_notes: Kinase Glo Luminescent Kinase Assay (Kglo), assay A
# Assay type: biochemical
# experimental_parameters: read-out: Assay A PI3Kα IC50
pIC50: −log10 of the molar value. Where a name gives a salt, the structure may show the parent alone.
assay_endpoint: pIC50

// worked examples, pIC50 included
molecule: CCc1noc(-c2nc(-c3cc(S(=O)(=O)NC4CNC4)ccc3C)cnc2N)n1 [Example 137]
pIC50: 5.76
//
molecule: Cc1ncc(-c2nc(-c3cc(S(=O)(=O)N4CCNC(C(F)(F)F)C4)ccc3C)cnc2N)s1 (centres unmarked) [Example 118]
pIC50: 7.52
//
molecule: Cc1ccc(S(=O)(=O)NCC2(CO)CCCC2)cc1-c1cnc(N)c(-n2cncn2)n1 [Example 127.25]
pIC50: 6.89

(I) Cc1ccc(S(=O)(=O)NCCC(C)(C)O)cc1-c1cnc(N)c(-c2ccc(N3CCCC3)nc2)n1 [Example 119.17]
(II) Cc1ccc(S(=O)(=O)NCC(C)(C)O)cc1-c1cnc(N)c(-n2cnc(CN(C)C)n2)n1 [Example 117, hydrochloride salt]
(III) Cc1cc(F)c(S(=O)(=O)NCC(C)(C)O)cc1-c1cnc(N)c(-n2cncn2)n1 [Example 122]
INPUT: Hi! Can you put these in order of pIC50, lowest number first? Please, when replying, give the labels in the order that was requested.
OUTPUT: I, II, III

(A) CCN1CCC[C@H]1CNS(=O)(=O)c1ccc(C)c(-c2cnc(N)c(-c3cn(C)nc3C)n2)c1 [Example 128.1]
(B) Cc1noc(-c2nc(-c3cc(S(=O)(=O)NCCC(C)(C)O)ccc3C)cnc2N)n1 [Example 3]
(C) Cc1ccc(S(=O)(=O)N2CC(F)(F)C2)cc1-c1cnc(N)c(-n2cncn2)n1 [Example 127.4]
INPUT: // sort entries: pIC50, high to low When ranking, write the labels in the order the request describes.
OUTPUT: B, A, C
(B: 6.22, A: 6.00, C: 5.59)

(a) Cc1cn(-c2nc(-c3cc(S(=O)(=O)NCCC(C)(C)O)ccc3C)cnc2N)cn1 [Example 63]
(b) Cc1cc(-c2nc(-c3cc(S(=O)(=O)NCCN4CCCC4)ccc3C)cnc2N)ccn1 [Example 129.27]
INPUT: Form: Entry with minimum pIC50 (choose one): a / b Indicate which entry you chose by stating its label.
OUTPUT: b
(b: 5.05, a: 6.48)

* * *

# protocol_notes: Microsomal clearance assay (M)
# experimental_parameters: intrinsic clearance in rat liver microsomes
assay_endpoint: Assay M RLM CI(int) (µL/min/mg)

Use the examples below as a reference point.
molecule: CCN1CCC[C@@H]1CNS(=O)(=O)c1ccc(C)c(-c2cnc(N)c(-n3cncn3)n2)c1
value: 233
--
molecule: Cc1nc(C)n(-c2nc(-c3cc(S(=O)(=O)NCC(C)(C)O)ccc3C)cnc2N)n1
value: 20
--
molecule: Cc1ccc(S(=O)(=O)NC[C@H]2C[C@@H](O)C2)cc1-c1cnc(N)c(-n2cncn2)n1
value: 41
--
molecule: Cc1ccc(S(=O)(=O)NCCC(C)(C)O)cc1-c1cnc(N)c(-c2cnn(C(C)C)c2)n1
value: 79
--
molecule: Cc1ccc(S(=O)(=O)NCC(C)(C)O)cc1-c1cnc(N)c(-c2noc(C3CC3)n2)n1
value: 46

(A) Cc1ccc(S(=O)(=O)N2CC(C)(O)C2)cc1-c1cnc(N)c(-n2cncn2)n1
(B) Cc1ccc(S(=O)(=O)NCC(=O)C(C)(C)C)cc1-c1cnc(N)c(-n2cncn2)n1
INPUT: Lower value for measured Assay M RLM CI(int)? Options: A , B Your answer should be the label of the entry you select.
OUTPUT: A
